Listed here: items and their measured fold over parental (CHO WT).
experimental-target: T1, Full length human TfR on CHO cells (human, UniProt P02786 1-760)
T1 construct: also called CHO + huTfR; CHO + hTfR
T1 sequence (P02786 whole entry): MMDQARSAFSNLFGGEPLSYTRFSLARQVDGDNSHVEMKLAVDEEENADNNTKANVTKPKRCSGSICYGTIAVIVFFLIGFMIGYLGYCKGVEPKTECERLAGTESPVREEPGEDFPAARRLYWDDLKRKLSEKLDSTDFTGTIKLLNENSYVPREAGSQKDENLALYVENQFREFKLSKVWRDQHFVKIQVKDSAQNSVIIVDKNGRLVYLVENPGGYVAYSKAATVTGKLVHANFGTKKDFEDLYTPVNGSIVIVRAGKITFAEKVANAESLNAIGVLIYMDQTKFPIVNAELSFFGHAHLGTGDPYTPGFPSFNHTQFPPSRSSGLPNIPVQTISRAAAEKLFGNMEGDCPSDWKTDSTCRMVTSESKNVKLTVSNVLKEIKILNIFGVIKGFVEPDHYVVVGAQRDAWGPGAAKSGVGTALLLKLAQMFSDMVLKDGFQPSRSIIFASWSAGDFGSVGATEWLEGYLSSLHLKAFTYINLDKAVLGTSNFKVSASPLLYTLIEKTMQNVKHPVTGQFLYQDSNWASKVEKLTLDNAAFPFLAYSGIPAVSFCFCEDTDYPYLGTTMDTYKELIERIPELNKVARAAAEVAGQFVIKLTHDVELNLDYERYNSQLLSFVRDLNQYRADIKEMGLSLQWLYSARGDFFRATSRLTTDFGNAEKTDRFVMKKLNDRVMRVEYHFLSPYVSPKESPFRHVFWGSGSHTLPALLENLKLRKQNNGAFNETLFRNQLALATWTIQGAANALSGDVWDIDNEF
assay-summary: FACS MFI, supernatant
Dear colleague, please return just the value in fold, with no unit written.

// known answers, use as guide
INSERT INTO assay_data (binder, quantitative_result) VALUES
  ('TfR17 (mouse hybridoma antibody) (antibody, V domains shown, mouse IgG in hybridoma supernatant) VH: DVQLQESGPGLVKPSQSLSLTCTVTGYSITSDYAWNWIRQFPGNKLEWMGYISYSGSTSYNPSLKSRISITRDTSKNQFFLQLNSVTTEDTATYYCASWGYRYLEDYWGQGTSVTVSS VL: QIVLTQSPAIMSASPGEKVTMTCSASSSISSMHWYQQKPGTSPKRWISDTSKLASGIPARFSGSGSGTSYSLTISSMAAEDAAAYYCHQRSSYPWTFGGGTKLEIK', 73),
  ('TfR18 (mouse hybridoma antibody) (antibody, V domains shown, mouse IgG in hybridoma supernatant) VH: QVQLQQSGAELVRPGTSVKVSCKASGYAFTNYLIEWIKQRPGQGLEWIGVINPGNNDTTYNEMFKAKTTLTADKSSNTAYMQLSSLTSDDSAVYFCARRSPYFDYWGQGTTLTVSS VL: SIVMTQTPKFLLVSAGDRVTITCKASQSVSNDVAWYQQKPGQSPKLLIYYASNRYTGVPDRFTGSGYGTDFTFTISTVQAEDLAVYFCHQDYSSPTFGGGTKLEIK', 75);

Turning to the following binder.
Task: Need fold over parental (CHO WT), item TfR26 (mouse hybridoma antibody) (antibody, V domains shown, mouse IgG in hybridoma supernatant) VH: QVQLHQSGPELVKPGASVKMSCKASGYTFTNYYIHWVKQRPGQGLEWIGWIYPGDGVTHYNEKFKGKTTLTADKSSSTAYMLLSSLTSEDSAIYFCARDKDVPGMDYWGQGTSVTVSS VL: DIVMTQSPSSLTVTSGEKVTMSCKSSQSLLNSENQKNYLTWYQQKPGQPPKLLIYWASTRESGVPDRFTGSGSGPDFTLTISSVQAEDLAVYYCQNDYSYPLTFGAGTKLELK
Output: 285

Entry source: patent US20250270339A1
